- Test system: HeLa
- method: Proliferation assay (crystal violet), HeLa
- Format: cell-based
- reportedConditions: Homo sapiens, 96 h, 4 days, read-out: Inhibition of proliferation IC50 HeLa
readoutType: IC50

Example compounds with recorded IC50:
smilesStr: COC(=O)c1cnc(Nc2snc(C)c2C(=O)Nc2ccc(OC)nc2)cn1
IC50: 8.3 µM
//
smilesStr: COC(=O)c1cnc(Nc2snc(C)c2C(=O)Nc2ccc(F)c(F)c2)o1
IC50: 10 µM
//
smilesStr: CCc1ccccc1NC(=O)c1c(C)nsc1Nc1ncnc2sccc12
IC50: 9.5 µM
//
smilesStr: Cc1nsc(Nc2cnc3cc(C(F)(F)F)ccc3n2)c1C(=O)Nc1ccc(Cl)c(F)c1
IC50: 1 µM
//
smilesStr: Cc1nsc(Nc2cnc(C(=O)N(C)C)cn2)c1C(=O)Nc1ccc(F)c(F)c1
IC50: 5 µM
//
smilesStr: CCOC(=O)c1cnc(Nc2snc(C)c2C(=O)Nc2ccccc2CC)s1
IC50: 10 µM
//
smilesStr: COc1ccc(NC(=O)c2c(C)nsc2Nc2cnc3ccc(Cl)cc3n2)cn1
IC50: 1.2 µM
//
smilesStr: Cc1nsc(Nc2cncc(Cl)n2)c1C(=O)Nc1ccc(F)c(F)c1
IC50: 0.38 µM

Turning now to a further compound:
Q. Give the measured IC50 of COc1ccc(NC(=O)c2c(C)nsc2Nc2cnc3ccc(F)cc3n2)cn1 .
A. 2.4 µM
